Experiment: Selectivity index, ratio of IC50 for equine serum BuChE to IC50 for electric eel AChE
readout_type: Ratio IC50

The cases that follow already have their Ratio IC50 on record.
>>> readout_value("COc1ccc(C2C(C#N)=C(NC(=O)CN3CCN(c4ccccc4)CC3)Oc3c2c(=O)oc2ccccc32)cc1 (stereo not drawn)")
40.8
>>> readout_value("N#CC1=C(NC(=O)CN2CCOCC2)Oc2c(c(=O)oc3ccccc23)C1c1ccccc1 (stereo not drawn)")
3.7
>>> readout_value("N#CC1=C(NC(=O)CN2CCOCC2)Oc2c(c(=O)oc3ccccc23)C1c1ccc(Cl)cc1 (stereo not drawn)")
6.3
>>> readout_value("COc1ccc(C2C(C#N)=C(NC(=O)CN3CCN(c4ccccc4)CC3)Oc3c2c(=O)oc2ccccc32)cc1OC (stereo not drawn)")
41
>>> readout_value("COc1ccc(C2C(C#N)=C(NC(=O)CN3CCOCC3)Oc3c2c(=O)oc2ccccc32)cc1 (stereo not drawn)")
31.1
>>> readout_value("N#CC1=C(NC(=O)CN2CCN(c3ccccc3)CC2)Oc2c(c(=O)oc3ccccc23)C1c1ccccc1 (stereo not drawn)")
4.5

Quickly give me recorded Ratio IC50 for N#CC1=C(NC(=O)CN2CCN(c3ccccc3)CC2)Oc2c(c(=O)oc3ccccc23)C1c1ccc(Cl)cc1 (stereo not drawn)
14.1

Tell us which Ratio IC50 value is on record for COc1ccc(C2C(C#N)=C(NC(=O)CN3CCOCC3)Oc3c2c(=O)oc2ccccc32)cc1OC (stereo not drawn)
10.5
